Measured log10 of ED50 values are reported for all entries that follow.
tgt: Angiotensin II receptor (Rattus norvegicus) (UniProt P29089+P25095+P35351)
assay-name: Inhibition of pressor response induced by Angiotensin II in Alderley Park Wistar rats after single intravenous dose
Type: functional
// do not treat as linear: log10 of ED50, unit mg/kg

Completed entries (count: 4):
Input: Data request, read-out log10 of ED50, for `CCCCc1nc2cnnc(O)c2n1Cc1ccc(-c2ccccc2-c2nn[nH]n2)cc1`
Output: -0.21

Input: Check `CCCCc1nc(Cl)c(CO)n1Cc1ccc(-c2ccccc2-c2nnn[nH]2)cc1` too.
Output: -0.19

Input: Check `CCCCc1nc2cnnc(O)c2n1Cc1ccc(-c2ccccc2C(=O)O)cc1` too.
Output: 0.83

Input: Check `CCCCc1nc2cnn(C)c(=O)c2n1Cc1ccc(-c2ccccc2C(=O)O)cc1` too.
Output: 1.67

Now take the following compound into account.
Input: Data request, read-out log10 of ED50, for `CCCCc1nc2cnncc2n1Cc1ccc(-c2ccccc2C(=O)O)cc1`
Output: 0.72
